System: Mycobacterium tuberculosis
Test: Antibacterial activity against Mycobacterium tuberculosis H37Rv after 6 days by Alamar blue dye-based colorimetric assay
Format: functional
Conditions: 144 h
List of MIC90 values.
Please reply with the bare figure in µg/mL and do not write the unit itself.

record-smiles: C=C/C(C)=C/[C@@]1(C)SC(=O)C(CCc2ccc(Cl)cc2)=C1O
measured-metric: MIC90
measure-unit: µg/mL
test-result: 100

Given the entry "C=C/C(C)=C/[C@@]1(C)SC(=O)C(CCC)=C1O" , report its measured MIC90.
25

What MIC90 value was documented for this molecule, "C=C/C(C)=C/[C@@]1(C)SC(=O)C(C(=O)CCCCCc2ccc(-c3ccccc3)cc2)=C1O" ?
50

====

Tested on: Francisella tularensis
Experiment: Antibacterial activity against Francisella tularensis LVS after 18 to 24 hrs by Alamar blue dye-based colorimetric assay
Format: functional
Mark MET only for MIC90 values smaller than 20 µg/mL; exact matches and larger values are NOT MET.

# count of solved cases: 4
record-smiles: C=C/C(C)=C/[C@@]1(C)SC(=O)C(CCCCn2cc(CNC(=O)c3ccc(NS(=O)(=O)c4ccc(F)cc4)cc3)nn2)=C1O
class: NOT MET

record-smiles: C=C/C(C)=C/[C@@]1(C)SC(=O)C(C(=O)C(F)(F)F)=C1O
class: NOT MET

record-smiles: C=C/C(C)=C/[C@@]1(C)SC(=O)C(C(=O)c2ccccc2C(=O)O)=C1O
class: MET

record-smiles: C=C/C(C)=C/[C@@]1(C)SC(=O)C(CC)=C1O
class: MET

Strictly below 20 µg/mL: is that where MIC90 of "C=C/C(C)=C/[C@@]1(C)SC(=O)C(C(=O)CCC)=C1O" sits?
MET

====

Test: Binding affinity to Mycobacterium tuberculosis wild type FabB expressed in Mycobacterium smegmatis MC2 155 by intrinsic tryptophan fluorescence quenching-based fluorimetric method
pKi: −log10 of the molar value.
measured-metric: pKi

Requested read-out: pKi. Entry: "C=C/C(C)=C/[C@@]1(C)SC(=O)C=C1OCC(=O)NCCNC(=O)OC(C)(C)C"
< 3.70

====

Property: MIC90; scope: individual molecules
Tested on: Francisella tularensis
Assay: Antibacterial activity against Francisella tularensis LVS after 18 to 24 hrs by Alamar blue dye-based colorimetric assay
Assay type: functional
All answers are understood in mg/L, so give the number only.

record-smiles: C=C/C(C)=C/[C@@]1(C)SC(=O)C(CCCCn2cc(CNC(=O)[C@H](O)C(C)(C)CO)nn2)=C1O
measured-metric: MIC90
test-result: 250
--
record-smiles: C=C/C(C)=C/[C@@]1(C)SC(=O)C(CCC)=C1O
measured-metric: MIC90
test-result: 25.8
--
record-smiles: C=C/C(C)=C/[C@@]1(C)SC(=O)C(C(=O)OC)=C1O
measured-metric: MIC90
test-result: 58.2
--
record-smiles: C=C/C(C)=C/[C@@]1(C)SC(=O)C(CCc2ccc(Cl)cc2)=C1O
measured-metric: MIC90
test-result: 3.1
--
record-smiles: C=C/C(C)=C/[C@@]1(C)SC(=O)C(CCCCN=[N+]=[N-])=C1O
measured-metric: MIC90
test-result: 15.3

Can you look up the measured MIC90 of "C=C/C(C)=C/[C@@]1(C)SC(=O)C=C1OCC(=O)NCCn1cc(CNC(=O)[C@H](O)C(C)(C)CO)nn1" for me?
159

What value of measured MIC90 is listed for "C=C/C(C)=C/[C@@]1(C)SC(=O)C(C)=C1O" ?
2.8

Using the record for "C=C/C(C)=C/[C@@]1(C)SC(=O)C(C(=O)CCCCCc2ccc(-c3ccccc3)cc2)=C1O" , report its MIC90.
0.21

Quick check: MIC90 of "C=C/C(C)=C/[C@@]1(C)SC(=O)C(CCCN=[N+]=[N-])=C1O" ?
23.6

Consider the molecule "C=C/C(C)=C/[C@@]1(C)SC(=O)C(C(C)=O)=C1O" and give its measured MIC90.
8.8

Fill blank: measured MIC90 of the molecule "C=C/C(C)=C/[C@@]1(C)SC(=O)C(CCc2ccc(C)cc2)=C1O" is ____.
3.4

Fill in: MIC90 of "C=C/C(C)=C/[C@@]1(C)SC(=O)C(CCCCc2ccc(-c3ccccc3)cc2)=C1O" is ___
1.9

Please report the recorded MIC90 for "C=C/C(C)=C/[C@@]1(C)SC(=O)C=C1O" .
124

Reported MIC90, molecule "C=C/C(C)=C/[C@@]1(C)SC(=O)C(CCCCc2ccc(F)cc2)=C1O" : ____
3.1

Consider the molecule "C=C/C(C)=C/[C@@]1(C)SC(=O)C=C1OCC(=O)NCCN=[N+]=[N-]" and give its measured MIC90.
39

Any idea what MIC90 was measured for "C=C/C(C)=C/[C@@]1(C)SC(=O)C(CCCCc2ccc(Br)cc2)=C1O" ?
2.2

Requested read-out: MIC90. Entry: "C=C/C(C)=C/[C@@]1(C)SC(=O)C(CCCCc2ccc(Cl)cc2)=C1O"
1.7

Requested field: MIC90. Item: "C=C/C(C)=C/[C@@]1(C)SC(=O)C(C(=O)CCCCCCCCCCCCCCC)=C1O"
3.9

Would you mind telling me what MIC90 value was observed for "C=C/C(C)=C/[C@@]1(C)SC(=O)C=C1OCC(=O)NCCNC(=O)OC(C)(C)C" ?
54
